- System: H-125 cells
- measurement description: Cell viability (MTS) assay, sequential: P15 pre-treatment, then cytostatic drug
- conditions used: Homo sapiens, NCI-H125, read-out: IC50, Cytostatic drug alone
metric name: IC50 (nM)

# test smiles, metric name, units, measurement
records = [
    ("COc1cccc2c1C(=O)c1c(O)c3c(c(O)c1C2=O)C[C@@](O)(C(=O)CO)C[C@@H]3O[C@H]1C[C@H](N)[C@H](O)[C@H](C)O1", "IC50", "nM", 423),
    ("O=C1c2c(O)ccc(O)c2C(=O)c2c(NCCNCCO)ccc(NCCNCCO)c21", "IC50", "nM", 700),
    ("CC[C@]1(O)C[C@H]2CN(CCc3c([nH]c4ccccc34)[C@@](C(=O)OC)(c3cc4c(cc3OC)N(C=O)[C@H]3[C@@](O)(C(=O)OC)[C@H](OC(C)=O)[C@]5(CC)C=CCN6CC[C@]43[C@@H]65)C2)C1", "IC50", "nM", 856),
]
